All values here come from PubChem BioAssay (NCI).

# System: OVCAR-3 ovarian
# Procedure summary: NCI tumour cell line growth inhibition, 48 h
Measurement kind: GI50

[
  {
    "Structure smiles string": "O=C(Nc1cc(C(F)(F)F)ccc1F)Nc1n[nH]c2ccccc12",
    "Result": "> 100000 nM"
  }
]

Now examine the next entry.
Record `CCOC(=O)CC1(O)C=CC(=O)C=C1` , field GI50: 0.738 µg/mL

---

# Tested on: SF-539 CNS
# Procedure summary: NCI tumour cell line growth inhibition, 48 h
Measurement kind: GI50

Solved cases below.
[
  {
    "Molecule": "O=C1c2ccccc2C(=O)N1c1ccc(S(=O)(=O)Nc2ncccn2)cc1",
    "GI50": "> 100 µM"
  },
  {
    "Molecule": "Cn1c(=O)cc2c3c(c(NCCCO)ccc31)C(=O)c1ccccc1-2",
    "GI50": "8.8 µM"
  },
  {
    "Molecule": "O=C(Nc1ccc(Br)cc1)Nc1n[nH]c2ccccc12",
    "GI50": "> 70.9 µM"
  },
  {
    "Molecule": "CCN(CC)c1ccc2c(c1)Oc1nc(N)c(C#N)c(N)c1C2Sc1ccc(SC)cc1 (stereo unspecified)",
    "GI50": "1.64 µM"
  },
  {
    "Molecule": "CC1(C)N=C(N)N=C(N)N1c1ccc(F)c(C(F)(F)F)c1",
    "GI50": "0.71 µM"
  }
]

Record `O=C(COc1cccc(/C=C2\COc3ccccc3C2=O)c1)Nc1nccs1` , field GI50: 14.7 µM
